Reported growth inhibition values follow for various compounds
Assay info: NCI Yeast Anticancer Drug Screen. Data for the wt1 strain (AID 149);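 note: 0% = growth of vehicle-treated wt1 cultures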
Recorded conditions: S. cerevisiae wt1 strain (SPY 50644) growth inhibition; at 1.2 µM; active compounds read high
The panel holds about 79,000 compounds, 15% with a hit somewhere; the sample as a whole holds those more often. Active and inactive are the calls of the source. Cut-off read from the data, not from the text of the source: active = growth inhibition above about 70%; inactive = the rest.

// solved cases for growth inhibition follow
## Input Which value of growth inhibition has been reported for `CN(N=O)C(=O)N[C@@H](C=O)[C@@H](O)[C@H](O)[C@H](O)CO` in the records?
## Output 0% (inactive)

## Input Which value of growth inhibition has been reported for `NNC(=S)Nc1cccc2ccccc12` in the records?
## Output -21% (inactive)

## Input Which value of growth inhibition has been reported for `N#C/C(=C1C=C/C(=N/O)c2ccccc2/1)c1ccccc1` in the records?
## Output -3% (inactive)

## Input Which value of growth inhibition has been reported for `CCCCCC(=O)c1ccc(O)cc1O` in the records?
## Output -14% (inactive)

Okay, next one:
## Input Which value of growth inhibition has been reported for CC1=CCCC2C1(C)CCC(C)C2(C)Cc1cc(O)ccc1O (stereo not given) in the records?
## Output -5% (inactive)

###

Assay info: NCI Yeast Anticancer Drug Screen. Data for the bub3 strain (AID 167)
Recorded conditions: S. cerevisiae bub3 mutant strain, at 33.0 µM, active compounds read high
The panel holds about 79,000 compounds, 15% with a hit somewhere; the sample as a whole holds those more often.
Think of 20% as a floor: if growth inhibition stands on it or above, it is condition met; beneath it, condition not met.

## Input Does the compound `N#Cc1sc2c(c1OC(=O)c1ccco1)c(=O)n(-c1ccccc1)c(=S)n2-c1ccccc1` have recorded growth inhibition that is 20% or more?
## Output condition not met

## Input Does the compound `CN(C)CCN1C(=O)c2cccc3cc([N+](=O)[O-])cc(c23)C1=O` have recorded growth inhibition that is 20% or more?
## Output condition not met

## Input Does the compound CC1OC(OC2CCCc3c(O)c4c(c(O)c32)C(=O)c2ccccc2C4=O)CC(N)C1O (stereo not drawn) have recorded growth inhibition that is 20% or more?
## Output condition met

## Input Does the compound `O=C(/C=C/c1cccc2ccccc12)c1ccc(Cl)cc1` have recorded growth inhibition that is 20% or more?
## Output condition not met

## Input Does the compound `CCCc1[nH]nc(C(N)=O)c1N=NN(C)C` have recorded growth inhibition that is 20% or more?
## Output condition not met

## Input Does the compound `COc1ccc(SCc2cc(OC)ccc2OC)cc1` have recorded growth inhibition that is 20% or more?
## Output condition met

## Input Does the compound `COc1ccc(/C=C(\NC(=O)c2ccccc2)C(=O)NN(C)c2ccnc3cc(Cl)ccc23)cc1OC` have recorded growth inhibition that is 20% or more?
## Output condition met

Others:
## Input Does the compound `S=c1nc(Cl)cc2[nH]c(Cl)cn12` have recorded growth inhibition that is 20% or more?
## Output condition met

###

Assay info: NCI Yeast Anticancer Drug Screen. Data for the mec2-1 strain (AID 157)
Recorded conditions: S. cerevisiae mec2-1 strain, at 1.2 µM, active compounds read high
About 79,000 compounds went through this panel and 15% of them were active in at least one assay; those are over-represented in the sample as a whole.
Measurement label: growth inhibition (%)
Lab book: enter the figure in %, no units written.

## Input Which value of growth inhibition has been reported for `O=S(=O)(N/N=C/c1cccc(Cl)c1)c1ccccc1` in the records?
## Output -3

## Input Which value of growth inhibition has been reported for `CC(=O)N1C(=O)/C(=C\C(=O)c2ccc(Cl)cc2)c2ccccc21` in the records?
## Output -3

## Input Which value of growth inhibition has been reported for CCCCCCCCCCCCCC(=O)OC(C)CCC1CCCO1 (centres undefined) in the records?
## Output 0

## Input Which value of growth inhibition has been reported for `CCN(CC)CCNC(=O)c1nn(-c2ccc(Cl)cc2)c2c1CCc1cc(OC)ccc1-2` in the records?
## Output -10

## Input Which value of growth inhibition has been reported for CCC(=O)N(c1ccccc1)C(C)CN1CCC(O)(c2cccc(C(F)(F)F)c2)CC1 (centres undefined) in the records?
## Output 0

## Input Which value of growth inhibition has been reported for `O=[N+]([O-])c1cccc2nc3ccccc3c(NCCc3cccc[n+]3[O-])c12` in the records?
## Output 2

## Input Which value of growth inhibition has been reported for `CCCCCC(=O)c1ccc(O)cc1O` in the records?
## Output -7

## Input Which value of growth inhibition has been reported for `CCCc1[nH]nc(C(N)=O)c1N=NN(C)C` in the records?
## Output 1

## Input Which value of growth inhibition has been reported for Nc1nc(F)nc2c1ncn2C1OC(COP(=O)(O)O)C(O)C1O (centres undefined) in the records?
## Output 1

## Input Which value of growth inhibition has been reported for CCN(CC)CC(O)C1CCC(c2ccccc2)CC1 (centres undefined) in the records?
## Output 3

Others:
## Input Which value of growth inhibition has been reported for `CO[C@@]12[C@H](COC(N)=O)C3=C(C(=O)C(C)=C(N)C3=O)N1C[C@@H]1N[C@@H]12` in the records?
## Output 1

## Input Which value of growth inhibition has been reported for `Nc1cc(S(N)(=O)=O)ccc1SSc1ccc(S(N)(=O)=O)cc1N` in the records?
## Output 1

## Input Which value of growth inhibition has been reported for `CC(=O)c1cc2c(Cl)cc(Cl)cc2oc1=O` in the records?
## Output 8

## Input Which value of growth inhibition has been reported for `NC(N)=NCCCS(=O)(=O)Nc1ccc(Nc2c3ccccc3nc3cc([N+](=O)[O-])ccc23)cc1` in the records?
## Output -37

###

Reported growth inhibition values follow for various compounds
Assay info: NCI Yeast Anticancer Drug Screen. Data for the CLN2oe strain (AID 163);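 note: 0% = growth of vehicle-only control cultures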
Recorded conditions: S. cerevisiae CLN2oe strain, at 11.0 µM, active compounds read high
About 79,000 compounds went through this panel and 15% of them were active in at least one assay; those are over-represented in the sample as a whole.
Lab book: enter the figure in %, no units written.

// solved cases for growth inhibition follow
## Input Which value of growth inhibition has been reported for `CCCCC1=NNC(=O)C1` in the records?
## Output -52

## Input Which value of growth inhibition has been reported for `COC(=O)c1cccc(C)c1C(=O)c1c(C)cc(C)cc1C` in the records?
## Output 2

Others:
## Input Which value of growth inhibition has been reported for `N#Cc1sc2c(c1OC(=O)c1ccco1)c(=O)n(-c1ccccc1)c(=S)n2-c1ccccc1` in the records?
## Output 4

## Input Which value of growth inhibition has been reported for `CC(=O)N1C(=O)/C(=C\C(=O)c2ccc([N+](=O)[O-])cc2)c2ccccc21` in the records?
## Output 28

## Input Which value of growth inhibition has been reported for `O=C1c2c(O)cccc2-c2nn(CCNCCO)c3ccc(NCCNCCO)c1c23` in the records?
## Output 21

## Input Which value of growth inhibition has been reported for `CCCCCCSc1nc(COC(=O)NC)c(COC(=O)NC)n1C` in the records?
## Output -3

## Input Which value of growth inhibition has been reported for `CCCCCCCCCCCCCCCCNC(=O)/C(=C\c1ccc(Cl)c(Cl)c1)NC(=O)c1ccccc1` in the records?
## Output -6

## Input Which value of growth inhibition has been reported for `ClCCn1c(CCl)nc2ccc(Cl)cc21` in the records?
## Output 34

###

Assay info: NCI Yeast Anticancer Drug Screen. Data for the rad14 strain (AID 159);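 note: 0% = growth of vehicle-treated control cultures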
Recorded conditions: S. cerevisiae rad14 strain growth inhibition; at 3.7 µM; active compounds read high
The panel holds about 79,000 compounds, 15% with a hit somewhere; the sample as a whole holds those more often.
Measurement label: growth inhibition (%)
Lab book: enter the figure in %, no units written.

## Input Which value of growth inhibition has been reported for `OCCNCCOc1ccc(/C(=C(/Cl)c2ccccc2)c2ccccc2)cc1` in the records?
## Output -8

## Input Which value of growth inhibition has been reported for CCOC(=O)C(NC(=O)CC)(N1CCN(c2cc3c(cc2F)c(=O)c(C(=O)O)cn3C2CC2)CC1)C(F)(F)F (stereo not given) in the records?
## Output 2

## Input Which value of growth inhibition has been reported for CC(=O)OCC1OC(O[C@H]2C=C[C@@H](C(=O)OCc3ccccc3)n3c(=O)n(-c4ccccc4)c(=O)n32)C(OC(C)=O)C(OC(C)=O)C1OC(C)=O (stereo not given in full) in the records?
## Output 8

## Input Which value of growth inhibition has been reported for `Cc1ccc(Nc2n[nH]c(=S)s2)cc1` in the records?
## Output -28

## Input Which value of growth inhibition has been reported for `COC(=O)c1cccc(C)c1C(=O)c1c(C)cc(C)cc1C` in the records?
## Output 0

## Input Which value of growth inhibition has been reported for `COc1ccc2c(c1)[nH]c1c(/C=C/c3ccccc3)nccc12` in the records?
## Output -25

## Input Which value of growth inhibition has been reported for `CCCCCCSc1nc(COC(=O)NC)c(COC(=O)NC)n1C` in the records?
## Output -4

## Input Which value of growth inhibition has been reported for `COc1ccc2oc(-c3ccc(Cl)cc3)c(N3CCN(C)CC3)c2c1` in the records?
## Output 13

## Input Which value of growth inhibition has been reported for CCN(CC)CC(O)C1CCC(c2ccccc2)CC1 (stereo not given) in the records?
## Output 34

## Input Which value of growth inhibition has been reported for `O=C(NCCCCCN1CCC2(CCCCC2)CC1)C(C1CCCCC1)C1CCCCC1` in the records?
## Output 49
